Values from patent US20150322137A1

# SYSTEM_NAME: F protein of human metapneumovirus strain JPS03-180 (type A1), on infectious virus (human metapneumovirus, strain JPS03-180 …)
# METHOD: cell-based or functional assay
Kindly supply the reported IC60, neutralizing activity (hMPV infection of LLC-MK2 cells; GraphPad Prism 6) values for the records listed here.

The reported value for EV046113 (antibody, human IgG1, kappa, V domains shown) VH: QVQLVESGGGLVRPGGSLRLSCAASGFTFSDYFMTWIRQAPGKGLEWVSYINSIGSVIFYADSVEGRFTVSRDNTMKSLFLQMNSLTAEDTAVYYCARSCRISYGASGGFSCGMDVWGQGTPVTVSS VL: DIQMTQSPSSLSASVGDRVTITCQASQSIRENINWYQQKTGKAPKLLIYDASILETGVPSRFSGSGSGTHFTFTISSLQPEDMATYYCQQYHHLITFGQGTRLDIKR in terms of IC60, neutralizing activity (hMPV infection of LLC-MK2 cells; GraphPad Prism 6) is 0.522 µg/mL

The reported value for EV046136 (antibody, human IgG1, kappa, V domains shown) VH: QVQLVQSGAEMKKPGASVKVSCKASGYTFTDYFIHWVRQAPGQGLEWMGWVNPNSGATNYAQKFQGRVTMTGDTSLSAAYVDLSRLSSDDSAVYYCARDRGLGISSTRNDAFDIWGQGTTVTVSS VL: DIQLTQSPSSLSASVGDRVTITCQPSQGIRNFLNWYQQKPGKAPNLLIYDASNLETGVASRFSGSGSGTHFTLTISSLQPEDIATYFCQQYHSLPLTFGGGTKVEIKR in terms of IC60, neutralizing activity (hMPV infection of LLC-MK2 cells; GraphPad Prism 6) is 0.358 µg/mL

The reported value for EV046116 (antibody, human IgG1, kappa, V domains shown) VH: QVQLQESGPGLVKPSETLSLTCTVSGGSISRDYWSFIRQPAGKGLEWIGRIYHNGDTNYNPSLKSRVTMSQDTSKNQFFLRLRHVTAADTAVYYCAREGSAGTFGQADWGQGTLVIVYS VL: EIVMTQSPATLSVSPGERATLSCRASQSISNNLAWYQQKPGQAPRLLIYGASTRATGIPARFSGGGSGTEFTLTISSLQSEDFAVYYCQQYENWLLYTFGQGTKLEIKR in terms of IC60, neutralizing activity (hMPV infection of LLC-MK2 cells; GraphPad Prism 6) is 0.428 µg/mL
